molecular target: eNOS (Bos taurus); construct: full length recombinant bovine eNOS, E. coli BL21 (DE3); with calmodulin; assay: oxyhemoglobin assay for NO formation
Sequence (P29473 2-1205): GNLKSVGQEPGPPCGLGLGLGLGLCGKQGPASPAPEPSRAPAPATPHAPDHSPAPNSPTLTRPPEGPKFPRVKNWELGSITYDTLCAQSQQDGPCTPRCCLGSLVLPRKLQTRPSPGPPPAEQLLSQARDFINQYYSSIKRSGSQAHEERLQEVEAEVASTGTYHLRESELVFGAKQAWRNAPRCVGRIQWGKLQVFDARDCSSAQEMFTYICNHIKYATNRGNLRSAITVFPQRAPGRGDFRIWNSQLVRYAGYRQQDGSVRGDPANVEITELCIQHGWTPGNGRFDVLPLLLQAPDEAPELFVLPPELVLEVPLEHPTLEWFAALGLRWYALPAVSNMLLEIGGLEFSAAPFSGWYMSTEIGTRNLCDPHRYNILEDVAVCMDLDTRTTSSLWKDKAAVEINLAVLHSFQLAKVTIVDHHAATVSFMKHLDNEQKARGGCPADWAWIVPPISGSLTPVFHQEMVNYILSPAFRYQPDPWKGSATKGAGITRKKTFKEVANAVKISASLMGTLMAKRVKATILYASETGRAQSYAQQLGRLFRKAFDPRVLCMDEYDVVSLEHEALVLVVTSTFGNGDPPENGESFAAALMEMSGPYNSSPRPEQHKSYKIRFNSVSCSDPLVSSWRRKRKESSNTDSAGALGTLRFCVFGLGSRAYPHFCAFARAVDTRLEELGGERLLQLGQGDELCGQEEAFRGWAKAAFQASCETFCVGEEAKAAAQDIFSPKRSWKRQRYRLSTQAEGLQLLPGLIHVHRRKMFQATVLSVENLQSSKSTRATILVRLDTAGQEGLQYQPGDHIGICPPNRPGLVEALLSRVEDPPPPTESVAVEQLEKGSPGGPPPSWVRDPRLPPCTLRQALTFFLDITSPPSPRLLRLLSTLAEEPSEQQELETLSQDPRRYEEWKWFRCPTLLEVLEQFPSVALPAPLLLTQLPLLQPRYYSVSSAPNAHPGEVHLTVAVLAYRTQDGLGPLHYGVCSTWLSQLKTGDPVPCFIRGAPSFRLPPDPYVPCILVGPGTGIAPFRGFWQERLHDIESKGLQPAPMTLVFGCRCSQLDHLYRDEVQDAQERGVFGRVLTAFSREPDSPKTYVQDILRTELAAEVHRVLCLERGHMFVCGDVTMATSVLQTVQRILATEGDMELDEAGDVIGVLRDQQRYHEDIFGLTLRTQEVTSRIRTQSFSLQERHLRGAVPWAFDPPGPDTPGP
assay-endpoint: IC50

Q) I would be grateful if you could share the reported IC50 for CCN(CCNC(=O)[C@H]1O[C@@H](n2cnc3c(N)ncnc32)[C@H](OP(=O)(O)O)[C@@H]1O)c1ccc(/C=C/c2ccc([N+](=O)[O-])cc2)cc1 .
A) ~30 µM

Each recorded value in this set is attributed to paper PMC8148004.
